EXPERIMENTAL PROTOCOL: xn = mol fraction of the nth substance listed
PROTOCOL CONDITIONS: 318.15 K; 100 kPa; Liquid; Cone and plate viscometry; x1 = 0.3
± gives the expanded uncertainty stated by the source.
RESULT TYPE: viscosity
Returns: string containing the numeric result and its unit.

CC(=O)[O-].CCCCCCCCCCCCCC[P+](CCCCCC)(CCCCCC)CCCCCC [trihexyl(tetradecyl)phosphonium acetate] + CCCCCC[n+]1ccn(C)c1.O=S(=O)([N-]S(=O)(=O)C(F)(F)F)C(F)(F)F : 85 ± 10 mPa·s

Per the record, CCCCCCCCCCCCCC[P+](CCCCCC)(CCCCCC)CCCCCC.O=[N+]([O-])c1cn[n-]c1 [trihexyl(tetradecyl)phosphonium 4-nitropyrazolide] + CCCCCC[n+]1ccn(C)c1.O=S(=O)([N-]S(=O)(=O)C(F)(F)F)C(F)(F)F has viscosity of 78 ± 9 mPa·s

====

EXPERIMENTAL PROTOCOL: xn = mol fraction of the nth substance listed
PROTOCOL CONDITIONS: 313.15 K; 100 kPa; Liquid; Cone and plate viscometry; x1 = 0.2
RESULT TYPE: viscosity (mPa·s)
The answer is to be given in mPa·s; state only the numeric part.

Guide cases for viscosity, answers given:
CCCCCCCCCCCCCC[P+](CCCCCC)(CCCCCC)CCCCCC.O=S(=O)([N-]S(=O)(=O)C(F)(F)F)C(F)(F)F + CCCCCC[n+]1ccn(C)c1.O=S(=O)([N-]S(=O)(=O)C(F)(F)F)C(F)(F)F : 60
CCCCCCn1cc[n+](C)c1.N#Cc1ccc[n-]1 [1-hexyl-3-methylimidazolium 2-cyanopyrrolide] + CCCCCCCCCCCCCC[P+](CCCCCC)(CCCCCC)CCCCCC.O=S(=O)([N-]S(=O)(=O)C(F)(F)F)C(F)(F)F : 145
CCCCCCCCCCCCCC[P+](CCCCCC)(CCCCCC)CCCCCC.O=[N+]([O-])c1cn[n-]c1 [trihexyl(tetradecyl)phosphonium 4-nitropyrazolide] + CCCCCC[n+]1ccn(C)c1.O=S(=O)([N-]S(=O)(=O)C(F)(F)F)C(F)(F)F : 70

Per the record, CCCCCCCCCCCCCC[P+](CCCCCC)(CCCCCC)CCCCCC.N#Cc1ccc[n-]1 [trihexyl(tetradecyl)phosphonium 2-cyanopyrrolide] + CCCCCC[n+]1ccn(C)c1.O=S(=O)([N-]S(=O)(=O)C(F)(F)F)C(F)(F)F has viscosity of 71

====

EXPERIMENTAL PROTOCOL: xn = mol fraction of the nth substance listed
PROTOCOL CONDITIONS: 278.15 K; 100 kPa; Liquid; Cone and plate viscometry; x1 = 0.101
The entries below are paired with their reported viscosity.
The answer is to be given in mPa·s; state only the numeric part.

Guide cases for viscosity, answers given:
CCCCCCn1cc[n+](C)c1C.O=[N+]([O-])c1cn[n-]c1 [1-hexyl-2,3-dimethylimidazolium 4-nitropyrazolide] + CCCCCCCC[P+](CC)(CC)CC.O=S(=O)([N-]S(=O)(=O)C(F)(F)F)C(F)(F)F : 401
CCCCCCC[P+](CC)(CC)CC.O=[N+]([O-])c1cn[n-]c1 [triethylheptylphosphonium 4-nitropyrazolide] + CC[P+](CC)(CC)COCCOC.O=S(=O)([N-]S(=O)(=O)C(F)(F)F)C(F)(F)F : 103
CC(=O)[O-].CCCCCCCCCCCCCC[P+](CCCCCC)(CCCCCC)CCCCCC [trihexyl(tetradecyl)phosphonium acetate] + CCCCCC[n+]1ccn(C)c1.O=S(=O)([N-]S(=O)(=O)C(F)(F)F)C(F)(F)F : 353

Proceed to the following item.
Per the record, CCCCCCn1cc[n+](C)c1.O=[N+]([O-])c1cn[n-]c1 [1-hexyl-3-methylimidazolium 4-nitropyrazolide] + CCCCCCCCCCCCCC[P+](CCCCCC)(CCCCCC)CCCCCC.O=S(=O)([N-]S(=O)(=O)C(F)(F)F)C(F)(F)F has viscosity of 1201

All figures here come from the NIST ThermoML archive (doi:10.1021/acs.jced.7b00221).
